measurement target: catalytic domain of human Bub1 (amino acids 704-1085) (Homo sapiens, UniProt O43683)
Construct: catalytic domain of human Bub1 (amino acids 704-1085); His6 (N); made in house; host or cells: Hi5 insect cells
Sequence (O43683 704-1085): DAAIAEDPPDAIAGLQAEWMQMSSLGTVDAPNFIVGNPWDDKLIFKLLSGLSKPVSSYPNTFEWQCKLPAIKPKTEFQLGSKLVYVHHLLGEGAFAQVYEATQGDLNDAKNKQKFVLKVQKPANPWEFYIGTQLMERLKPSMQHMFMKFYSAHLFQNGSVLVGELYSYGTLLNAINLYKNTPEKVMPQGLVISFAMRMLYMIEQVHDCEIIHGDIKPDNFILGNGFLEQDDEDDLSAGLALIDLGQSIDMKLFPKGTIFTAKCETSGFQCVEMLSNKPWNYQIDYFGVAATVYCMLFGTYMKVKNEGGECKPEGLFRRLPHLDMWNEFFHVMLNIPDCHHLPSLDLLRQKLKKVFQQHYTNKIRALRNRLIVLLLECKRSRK
protocol summary: Bub1 kinase assay (TR-FRET)
Format: biochemical
measurement context: TR-FRET; ATP 10 μM, peptide substrate 1 μM; 60 min at 22° C.; average or median if tested more than once; read-out: Inhibition of Bub1 kinase IC50
recorded metric: IC50 (nM)

INPUT: Look up IC50 with catalytic domain of human Bub1 (amino acids 704-1085) (Homo sapiens, UniProt O43683) for this compound: O=C1CNCc2[nH]c(-c3ccnc(NC(=O)[C@@H]4C[C@H]4F)c3)c(Nc3ccccc3)c21 (relative stereo)
OUTPUT: 76

INPUT: Same question for `CC(=O)Nc1cc(-c2[nH]c3c(c2Nc2ccccc2)C(=O)CN(C(=O)c2ccncc2)C3)ccn1` please.
OUTPUT: 26

INPUT: Check `Cc1cnccc1-c1[nH]c2c(c1Nc1ccccc1)C(=O)CN(C(=O)OC(C)(C)C)C2` too.
OUTPUT: 205

INPUT: Quick one: `CC(C)(C)OC(=O)N1CC(=O)c2c([nH]c(-c3ccncc3OCC3CC3)c2Nc2ccccc2)C1`
OUTPUT: 14

(a) O=C1CN(S(=O)(=O)c2cnc[nH]2)Cc2[nH]c(-c3ccnc(NC(=O)C4CC4(F)F)c3)c(Nc3ccccc3)c21 (racemic)
(b) O=C1CSCc2[nH]c(-c3ccncc3Cl)c(Nc3ccccc3)c21
(c) O=C1CN(C(=O)Nc2cccnc2)Cc2[nH]c(-c3ccncc3)c(Nc3ccccc3)c21
(d) CC(=O)Nc1cc(-c2[nH]c3c(c2Nc2ccc(F)cc2)C(=O)CN(S(C)(=O)=O)C3)ccn1
INPUT: Please put the entries in order of rising IC50. Your reply should list the labels following the order given in the request.
OUTPUT: d, a, b, c
(d: 4 nM, a: 6 nM, b: 40 nM, c: 59 nM)

(1) CN1CCN(C(=O)N2CC(=O)c3c([nH]c(-c4ccncc4OCC4CC4)c3Nc3ccccc3)C2)CC1
(2) CCOC(=O)N1CC(=O)c2c([nH]c(-c3ccnc(NC(=O)[C@@H]4C[C@@H]4F)c3)c2Nc2ccccc2)C1
(3) CC(=O)Nc1cc(-c2[nH]c3c(c2Nc2ccccc2)C(=O)CN(C(=O)c2cnco2)C3)ccn1
INPUT: Please list these in order of increasing IC50. Thank you! # list labels per requested ordering
OUTPUT: 2, 3, 1
(2: 4 nM, 3: 16 nM, 1: 48 nM)

(P) CC(=O)Nc1cc(-c2[nH]c3c(c2Nc2ccccc2)C(=O)CN(S(=O)(=O)c2cnc[nH]2)C3)ccn1
(Q) COCC(=O)Nc1cc(-c2[nH]c3c(c2Nc2ccccc2)C(=O)COC3)ccn1
INPUT: Given the listed records, identify the one among P and Q with higher IC50. Refer to your chosen item by its label in the answer.
OUTPUT: Q
(Q: 59 nM, P: 9 nM)

(I) O=C(Nc1cc(-c2[nH]c3c(c2Nc2ccccc2)C(=O)CNC3)ccn1)c1ccc(F)cc1
(II) O=C1CN(S(=O)(=O)c2cnc[nH]2)Cc2[nH]c(-c3ccnc(NC(=O)[C@@H]4C[C@@H]4F)c3)c(Nc3ccccc3)c21
INPUT: When I and II are compared, which has the higher number for IC50? Could you answer with the label of the item you picked?
OUTPUT: I
(I: 36 nM, II: 3 nM)
